assay: Microsome clearance assay, human; details: microsomes
Reported endpoint: microsomal CLint at 1 µM

| Compound | Reported endpoint | Measured |
| --- | --- | --- |
| COc1nc(NS(=O)(=O)c2c[nH]c3cc(Cl)ccc23)ncc1CC(F)F | microsomal CLint at 1 µM | 10 µL/min/mg |
| COc1nc(NS(=O)(=O)c2c[nH]c3c(F)c(Cl)ccc23)ncc1OCC(F)F | microsomal CLint at 1 µM | 10 µL/min/mg |
| COc1nc(NS(=O)(=O)c2c[nH]c3cc(Cl)ccc23)c(F)cc1CCC#N [RE-D, reference compound] | microsomal CLint at 1 µM | 103 µL/min/mg |
| COc1nc(NS(=O)(=O)c2c[nH]c3c(F)c(Cl)ccc23)c(F)cc1OCC(F)F [RE-B, reference compound] | microsomal CLint at 1 µM | 11 µL/min/mg |
| COc1nc(NS(=O)(=O)c2c[nH]c3cc(Cl)ccc23)ncc1Br | microsomal CLint at 1 µM | 10 µL/min/mg |
| COc1nc(NS(=O)(=O)c2c[nH]c3cc(Cl)ccc23)ncc1CCC#N | microsomal CLint at 1 µM | 10 µL/min/mg |
| COc1nc(NS(=O)(=O)c2c[nH]c3cc(Cl)ccc23)c(F)cc1CC(F)F [RE-C, reference compound] | microsomal CLint at 1 µM | 35 µL/min/mg |
| COc1nc(NS(=O)(=O)c2c[nH]c3cc(Cl)ccc23)c(F)cc1OCCF [RE-A, reference compound] | microsomal CLint at 1 µM | 121 µL/min/mg |
| COc1nc(NS(=O)(=O)c2c[nH]c3cc(Cl)ccc23)ncc1OCCF | microsomal CLint at 1 µM | 16 µL/min/mg |

---

biological target: human GPR17 short isoform (Homo sapiens (Human), UniProt Q13304); test: GPR17 cAMP assay (hGPR17 cAMP, antagonist mode against EC80 of MDL29,951); conditions: CHO-K1 cells stably expressing human GPR17 short isoform; EC80 of agonist MDL29,951; forskolin 15 μM
Sequence (Q13304 29-367): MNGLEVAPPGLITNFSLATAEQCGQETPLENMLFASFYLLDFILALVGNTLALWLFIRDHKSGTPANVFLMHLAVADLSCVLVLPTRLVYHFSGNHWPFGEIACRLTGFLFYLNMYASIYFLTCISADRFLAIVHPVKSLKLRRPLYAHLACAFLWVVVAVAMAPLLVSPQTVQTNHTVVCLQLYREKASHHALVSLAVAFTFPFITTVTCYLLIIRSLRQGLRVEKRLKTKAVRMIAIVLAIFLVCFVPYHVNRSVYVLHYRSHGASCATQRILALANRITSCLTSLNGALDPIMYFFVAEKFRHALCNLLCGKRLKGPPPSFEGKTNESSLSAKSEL
pIC50: −log10 of the molar value.
Each entry below lists one item and its recorded pIC50 value.
Reported endpoint: pIC50

| Line notation | Measurement target | Measured |
| --- | --- | --- |
| COc1nc(NS(=O)(=O)c2c[nH]c3cc(Cl)ccc23)ncc1C(C)(F)F | human GPR17 short isoform (Homo sapiens (Human), UniProt Q13304) | 6.13 |
| COc1nc(NS(=O)(=O)c2c[nH]c3cc(Cl)ccc23)nc(OC)c1CCC(F)F | human GPR17 short isoform (Homo sapiens (Human), UniProt Q13304) | 7.92 |
| COc1nc(NS(=O)(=O)c2c[nH]c3cc(Cl)ccc23)nc(OC)c1C | human GPR17 short isoform (Homo sapiens (Human), UniProt Q13304) | 7.72 |
| COc1nc(NS(=O)(=O)c2c[nH]c3cc(Cl)ccc23)nc(OC)c1CCC(F)(F)F | human GPR17 short isoform (Homo sapiens (Human), UniProt Q13304) | 7.41 |
| COc1nc(NS(=O)(=O)c2c[nH]c3c(CC#N)c(Cl)ccc23)ncc1CC(F)F | human GPR17 short isoform (Homo sapiens (Human), UniProt Q13304) | 7.46 |
| COc1nc(NS(=O)(=O)c2c[nH]c3c(F)c(Cl)ccc23)ncc1CCC(F)F | human GPR17 short isoform (Homo sapiens (Human), UniProt Q13304) | 7.85 |
| COc1nc(NS(=O)(=O)c2c[nH]c3cc(Cl)ccc23)nc(OC)c1Br | human GPR17 short isoform (Homo sapiens (Human), UniProt Q13304) | 7.70 |
| COc1nc(NS(=O)(=O)c2c[nH]c3nc(Br)ccc23)nc(OC)c1OC(F)F | human GPR17 short isoform (Homo sapiens (Human), UniProt Q13304) | 7.82 |
| COCc1c(OC)nc(NS(=O)(=O)c2c[nH]c3cc(Cl)ccc23)nc1OC | human GPR17 short isoform (Homo sapiens (Human), UniProt Q13304) | 7.21 |
| COc1nc(NS(=O)(=O)c2csc3nc(C(F)F)ccc23)nc(OC)c1CC(F)F | human GPR17 short isoform (Homo sapiens (Human), UniProt Q13304) | 6.59 |
| COc1nc(NS(=O)(=O)c2c[nH]c3cc(Br)ccc23)nc(OC)c1OCC(F)F | human GPR17 short isoform (Homo sapiens (Human), UniProt Q13304) | 7.74 |
